- Test system: IL-9 induced STAT3 phosphorylation
- method.description: Inhibition of IL-9 induced STAT3 phosphorylation in Jurkat T cell line, flow cytometry
- Type: cell-based, human
- measurement.parameters: ScFv 10 μg/ml
measured.property: p-STAT3 inhibition (%)
Enter your answer as a number in %; do not include the unit.

Task: Find the recorded p-STAT3 inhibition (%) belonging to SM-05J: anti-γc antibody; CDR SEQ ID NO: 148, 150, 152, 156, 158, 160 (antibody, V domains shown, left off: another chain or arm of the molecule; small tags and cut ends) VH: EVQLQQSGPELVKPGASVKISCKTSGYTFTEYTMHWVKQSHGKSLEWIGGIDPYNGGITYNQRFKGKATLTVDKSSSTAYMELRSLTSEDSAVYYCARRRLYYGYALDYWGQGTSVTVSS VL: DVVMTQTPLSLPVSLGDQASISCRSSQSIVHSNGNTYLEWYLQKPGQSPKLLIYKVSNRFSGVPDRFSGSGSGTDFTLKISRVEAEDLGVYYCFQGSHVPFTFGSGTKLEIK and report it.
Output: 100

Task: Find the recorded p-STAT3 inhibition (%) belonging to SM-05F: anti-γc antibody, full-length chimeric; CDR SEQ ID NO: 84, 86, 88, 92, 94, 96 (antibody, V domains shown) VH: EVQLQQSGPELVKPGASVKIFCKTSGYTFTEYTMHWVKQSHGESLEWIGGIDPNTGGVTYNQKFKGKATLTADKSSSTAYMELRSLTSEDSAVYYCARRRRYYGYALDYWGQGTSVTVSS VL: DVLMTQTPLSLPVSLGDQASISCRSSQSIVHNNGNTYLEWYLQKPGQSPKLLIYKVSNRFFGVPDRFSGSGSGTYFTLKISRVEAEDLGVYYCFQGSHVPWTFGGGTKLEIKR and report it.
Output: 92.36

Task: Find the recorded p-STAT3 inhibition (%) belonging to SM-05C: anti-γc antibody; CDR SEQ ID NO: 36, 38, 40, 44, 46, 48 (antibody, V domains shown, left off: another chain or arm of the molecule; small tags and cut ends) VH: QVQLQQSGPELVKPGASVKIFCKTSGYTFTEYTMHWVKQSHGESLEWIGGIDPNTGGATYNQKFKGKATLTADKSSSTAYMELRSLTSEDSAVYYCARRRRYYGYAMDYWGQGTSVTVSS VL: DVVMTQTPLSLPVSLGDQASISCRSSQSLVHSNGNTYLHWYLQKPGQSPKLLIYKVSNRFSGVPDRFSGSGSGTDFTLKISRVEAEDLGIYYCFQDSHVPFTFGSGTKLEIK and report it.
Output: 97.92

Task: Find the recorded p-STAT3 inhibition (%) belonging to SM-05D: anti-γc antibody; CDR SEQ ID NO: 52, 54, 56, 60, 62, 64 (antibody, V domains shown, left off: another chain or arm of the molecule; small tags and cut ends) VH: QVQLQQSGPELVKPGASVKISCKTSGYTFTEYTMHWVKQSHGKSLEWIGGIDPYNGGVTYNQRFKGKATLTVDKSSSTAYMEFRSLTSEDSAVYYCARRRLYYGNALDYWGQGTSVTVSS VL: DIVMTQTPLSLPVSLGDQASISCRSSQSIVHRNGNTYLEWYLQKPGQSPKLLIYKVSNRFSGVPDRFSGSGSGTDFTLKISRVEAEDLGVYYCFQGSHVPFTFGSGTKLEIK and report it.
Output: 100

Task: Find the recorded p-STAT3 inhibition (%) belonging to SM-05L: anti-γc antibody; CDR SEQ ID NO: 180, 182, 184, 188, 190, 192 (antibody, V domains shown, left off: another chain or arm of the molecule; small tags and cut ends) VH: EVQLQQSGPELVKPGASVKISCKTSGYTFTEYTMHWVKQSHGKSLEWIGGIDPNSGGATYNQKFKGKATLTVDKSSSTAYMEVRSLTSEDSAVYYCARRRLYYGYAMDYWGQGTSVTVSS VL: DVLMTQTPLSLPVSLGGQASISCRSSQNIVHSNGNTYLEWYLQKPGQSPKLLIYKVSNRFSGVPDRFSGSGSGTDFTLKISRVEAEDLGVYFCSQSTHVPFAFGSGTKLEIK and report it.
Output: 92.36

Task: Find the recorded p-STAT3 inhibition (%) belonging to SM-05B: anti-γc antibody; CDR SEQ ID NO: 20, 22, 24, 28, 30, 32 (antibody, V domains shown, left off: another chain or arm of the molecule; small tags and cut ends) VH: QVQLQQSGPELVKPGASVKIFCKTSGYTFTEYTMHWVKQSHGESLEWIGGIDPNTGGATYNQKFKGKATLTADKSSSTAYMELRSLTSEDSAVYYCARRRRYYGYALDYWGQGTSVTVSS VL: DVLMTQTPLSLPVSLGDQASISCRSSQSIVHSNGNTYLEWYLQKPGQSPKLLIYKVSNRFSGVPDRFSGSGSGTDFTLKISRVEAEDLGVYFCSQSTHVPWTFGGGTKLEIK and report it.
Output: 82.64
